I'd appreciate it if you could supply kon values for the items below.
# assay-system: SARS-COV-2 RBD extracellular domain expressed with a C-terminal myc-myc-hexahistidine tag (SARS-COV-2 RBD-mmH) (SARS-CoV-2)
# procedure-details: SPR Biacore, mAb captured on anti-hFc, RBD-mmH analyte, 37 C
Numbers only, in M⁻¹ s⁻¹.

Look up kon for the entries below, preserving their order.
1. mAb15150 (antibody, V domains shown) VH: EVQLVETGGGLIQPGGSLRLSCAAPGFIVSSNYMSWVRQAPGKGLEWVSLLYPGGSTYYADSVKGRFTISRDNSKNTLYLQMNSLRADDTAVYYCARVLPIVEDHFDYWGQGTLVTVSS VL: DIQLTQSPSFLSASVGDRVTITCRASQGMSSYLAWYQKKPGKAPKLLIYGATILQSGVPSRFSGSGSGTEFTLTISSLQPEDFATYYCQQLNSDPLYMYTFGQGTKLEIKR
2. mAb14285 (antibody, V domains shown) VH: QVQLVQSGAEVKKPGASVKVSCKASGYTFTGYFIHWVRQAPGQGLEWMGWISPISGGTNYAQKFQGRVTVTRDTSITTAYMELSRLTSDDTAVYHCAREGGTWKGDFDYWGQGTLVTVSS VL: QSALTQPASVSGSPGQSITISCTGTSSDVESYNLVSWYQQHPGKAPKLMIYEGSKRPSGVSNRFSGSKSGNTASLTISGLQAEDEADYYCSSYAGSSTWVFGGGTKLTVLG
3. mAb14235 (antibody, V domains shown) VH: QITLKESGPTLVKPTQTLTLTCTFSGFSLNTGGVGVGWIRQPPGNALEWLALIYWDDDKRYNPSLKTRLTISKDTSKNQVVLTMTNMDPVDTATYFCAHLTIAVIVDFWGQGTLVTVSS VL: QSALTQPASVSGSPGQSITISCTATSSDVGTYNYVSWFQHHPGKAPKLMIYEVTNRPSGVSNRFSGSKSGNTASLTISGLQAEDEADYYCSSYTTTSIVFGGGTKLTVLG
4. mAb13459 (antibody, V domains shown) VH: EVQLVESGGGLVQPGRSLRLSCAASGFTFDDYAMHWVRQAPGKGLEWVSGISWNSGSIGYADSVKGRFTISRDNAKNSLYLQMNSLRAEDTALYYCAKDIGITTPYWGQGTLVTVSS VL: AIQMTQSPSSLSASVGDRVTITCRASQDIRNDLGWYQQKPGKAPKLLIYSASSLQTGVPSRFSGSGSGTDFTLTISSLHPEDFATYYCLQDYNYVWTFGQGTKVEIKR
5. mAb14312 (antibody, V domains shown) VH: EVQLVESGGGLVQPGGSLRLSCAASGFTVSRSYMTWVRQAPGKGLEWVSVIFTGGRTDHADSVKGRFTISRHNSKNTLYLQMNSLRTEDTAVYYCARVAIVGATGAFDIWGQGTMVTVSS VL: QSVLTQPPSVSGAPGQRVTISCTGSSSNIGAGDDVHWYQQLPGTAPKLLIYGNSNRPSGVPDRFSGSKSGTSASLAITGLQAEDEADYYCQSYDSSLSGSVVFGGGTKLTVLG

A)
1: 493000; 2: 2.09e+06; 3: 793000; 4: 786000; 5: 1.57e+06
